This listing pairs sequences with measured PBM binding z-score.
System: THRa homodimer (NR concentration 90 nM)
protocolNotes: PBM binding z-score (relative to random genomic background probes); higher = stronger binding; sequences stand for … in GC…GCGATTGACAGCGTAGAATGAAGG

{"residues": "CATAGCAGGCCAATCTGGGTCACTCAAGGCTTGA", "PBM binding z-score": 0.366}
{"residues": "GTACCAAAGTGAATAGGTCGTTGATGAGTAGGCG", "PBM binding z-score": -0.733}
{"residues": "CCAGACAGGTGAAAGGTAACTCTGTCTGGTACGC", "PBM binding z-score": -0.229}
{"residues": "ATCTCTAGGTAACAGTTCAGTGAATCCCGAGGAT", "PBM binding z-score": 0.517}
{"residues": "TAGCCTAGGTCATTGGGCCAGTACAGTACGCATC", "PBM binding z-score": 0.878}
{"residues": "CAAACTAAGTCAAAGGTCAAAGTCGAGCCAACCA", "PBM binding z-score": 0.739}
{"residues": "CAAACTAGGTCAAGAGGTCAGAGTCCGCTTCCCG", "PBM binding z-score": 2.15}
{"residues": "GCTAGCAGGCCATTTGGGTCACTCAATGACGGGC", "PBM binding z-score": 0.534}
{"residues": "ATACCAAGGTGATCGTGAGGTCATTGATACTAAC", "PBM binding z-score": 4.6}
{"residues": "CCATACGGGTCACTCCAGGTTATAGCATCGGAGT", "PBM binding z-score": 0.591}
{"residues": "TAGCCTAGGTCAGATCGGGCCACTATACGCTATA", "PBM binding z-score": 0.493}
{"residues": "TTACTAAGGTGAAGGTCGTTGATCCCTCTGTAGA", "PBM binding z-score": 1.98}

Hey, just so you know, these numbers are from the supplement of paper PMC6555819.
